Counter-ions that a name gives are not always drawn.

compound | melting point
O=C(CN1c2nc(-c3ccncc3)cc(=O)n2CCC12CC2)c1ccccc1 (as salt: hydrochloride) [compound 2] | 232 to 234 °C
O=c1cc(-c2ccncc2)nc2n1CCC1(CCCC1)N2C[C@H](O)c1ccccc1 (as salt: hydrochloride) [compound 15] | 221 to 222 °C
O=c1cc(-c2ccncn2)nc2n1CCC1(CCCC1)N2C[C@H](O)c1ccccc1 [compound 5] | 155 to 156 °C
O=c1cc(-c2ccncn2)nc2n1CCC1(CCCC1)N2CCc1ccccc1 [compound 24] | 190 to 191 °C
O=c1cc(-c2ccncc2)nc2n1CCC1(CCCC1)N2Cc1ccccc1 (as salt: hydrochloride) [compound 19] | 227 to 228 °C
O=c1cc(-c2ccncc2)nc2n1CCC1(CCC1)N2CCc1ccccc1 (as salt: hydrochloride) [compound 21] | 210 to 211 °C
O=c1cc(-c2ccncc2)nc2n1CCC1(CCCC1)N2C[C@@H](O)c1ccccc1 (as salt: hydrochloride) [compound 3] | 221 to 223 °C
O=c1cc(-c2ccncc2)nc2n1CCC1(CCCC1)N2CCc1ccccc1 (as salt: hydrochloride) [compound 20] | 208 to 210 °C
O=c1cc(-c2ccncn2)nc2n1CCC1(CCC1)N2CCc1ccccc1 [compound 23] | 116 to 167 °C
O=C(CN1c2nc(-c3ccncc3)cc(=O)n2CCC12CCCC2)c1ccccc1 (as salt: hydrochloride) [compound 7] | 161 to 162 °C
O=c1cc(-c2ccncc2)nc2n1CCC1(CC1)N2C[C@@H](O)c1ccccc1 (as salt: hydrochloride) [compound No. 1] | 219 to 221 °C
O=C(CN1c2nc(-c3ccncn3)cc(=O)n2CCC12CCCC2)c1ccccc1 [compound 6] | 194 to 196 °C
O=c1cc(-c2ccncn2)nc2n1CCC1(CCCC1)N2Cc1ccccc1 [compound 16] | 191 to 193 °C
O=c1cc(-c2ccncn2)nc2n1CCC1(CCC1)N2C[C@H](O)c1ccccc1 [compound 12] | 182 to 184 °C
O=c1cc(-c2ccncc2)nc2n1CCC1(CC1)N2Cc1ccccc1 (as salt: hydrochloride) [compound 17] | 233 to 235 °C
O=C(CN1c2nc(-c3ccncc3)cc(=O)n2CCC12CCC2)c1ccccc1 (as salt: hydrochloride) [compound 9] | 242 to 244 °C
O=c1cc(-c2ccncc2)nc2n1CCC1(CCC1)N2C[C@H](O)c1ccccc1 (as salt: hydrochloride) [compound 13] | 218 to 220 °C
O=c1cc(-c2ccncc2)nc2n1CCC1(CCC1)N2C[C@@H](O)c1ccccc1 (as salt: hydrochloride) [compound 8] | 214 to 216 °C
O=c1cc(-c2ccncn2)nc2n1CCC1(CCC1)N2Cc1ccccc1 [compound 14] | 149 to 150 °C
O=c1cc(-c2ccncn2)nc2n1CCC1(CCC1)N2C[C@@H](O)c1ccccc1 [compound 11] | 186 to 187 °C
O=c1cc(-c2ccncc2)nc2n1CCC1(CCC1)N2Cc1ccccc1 (as salt: hydrochloride) [compound 18] | 213 to 215 °C
O=c1cc(-c2ccncc2)nc2n1CCC1(CC1)N2CCc1ccccc1 (as salt: hydrochloride) [compound 22] | 224 to 225 °C
O=c1cc(-c2ccncn2)nc2n1CCC1(CCCC1)N2C[C@@H](O)c1ccccc1 [compound 4] | 157 to 158 °C
O=C(CN1c2nc(-c3ccncn3)cc(=O)n2CCC12CCC2)c1ccccc1 [compound No. 10] | 207 to 208 °C
